Experimental details: chemical genetic growth profiling, strain panel (AID 1159580);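 further: tested at 20 µM; growth read once vehicle control cultures reached saturation at 30 °C; 1 = growth at the plate median or of vehicle wells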
Test context: S. cerevisiae deletion strains, growth OD, locus YDR137W, strain rgp1, hits give low values
Among all 5,500 compounds or so, about 2,000 (36%) were called active. Inconclusive results (about 18%) are left out. This is one part of the list.
Measure: normalized growth

Known normalized growth results, listed for orientation:
Problem: Supply measured normalized growth of CC(C)NC[C@H](O)COc1cccc2ccccc12 in your reply.
Result: 1 (inactive)

Problem: Supply measured normalized growth of CC(C)COCC(CN(Cc1ccccc1)c1ccccc1)N1CCCC1 (stereo not drawn) in your reply.
Result: 1.1 (inactive)

// below: normalized growth requested for another compound
Problem: Supply measured normalized growth of CCOC(=O)Nc1nc2ccccc2[nH]1 in your reply.
Result: 0.865 (inactive)

----------
Experimental details: chemical genetic growth profiling, strain panel (AID 1159580)
Test context: S. cerevisiae deletion strains, growth OD, locus YLR370C, strain arc18
About 2,000 (36%) of roughly 5,500 compounds were called active. Not shown: some 18% with an inconclusive outcome. No stated cut-off is given here; in the data, active means normalized growth mostly below about 0.91 (no sharp cut-off); inconclusive means no clear call, values can overlap the other calls; inactive means mostly above about 0.92. The list shows a part of the results.
A correct response names exactly one class from yes (1) for active, no (0) for inactive

Problem: Hello, I am checking results. What call was entered for CC1(C)O[C@H]2[C@H](O)C[C@](O)(C(N)=O)C[C@H]2O1 ?
Result: no (0)

Further cases:
Problem: Hello, I am checking results. What call was entered for O=S1OCC2C(CO1)C1(Cl)C(Cl)=C(Cl)C2(Cl)C1(Cl)Cl (stereo unspecified) ?
Result: no (0)

Problem: Hello, I am checking results. What call was entered for CN1C(C(=O)Nc2ccccn2)=C(O)c2ccccc2S1(=O)=O ?
Result: no (0)

Problem: Hello, I am checking results. What call was entered for O=C(O)c1ccccc1-c1c2cc(Br)c(=O)cc-2oc2[c]([Hg])c(O)c(Br)cc12 ?
Result: no (0)

Problem: Hello, I am checking results. What call was entered for C[C@H]1COC2=C1C(=O)C(=O)c1c2ccc2c1CCCC2(C)C ?
Result: yes (1)

Problem: Hello, I am checking results. What call was entered for CC(C(=O)O)c1ccc(C(=O)c2cccs2)cc1 (stereo unspecified) ?
Result: no (0)

----------
Experimental details: chemical genetic growth profiling, strain panel (AID 1159580)
Test context: S. cerevisiae deletion strains, growth OD, locus YDR159W, strain sac3, hits give low values
Screen size: about 5,500 compounds; about 2,000 (36%) were called active. About 18% were inconclusive and are not listed. This is one part of the list.
One threshold, 1, splits the recorded normalized growth values: lower ones are 1.0, equal or higher ones are 0.0.

Problem: # strict comparison: is reported normalized growth < 1? input = CCC(C)C(=O)O[C@H]1C[C@H](O)C=C2C=C[C@H](C)[C@H](CC[C@@H](O)C[C@@H](O)CC(=O)O)C21 (stereo not given in full)
Result: 1.0

Further cases:
Problem: # strict comparison: is reported normalized growth < 1? input = O=C1C=C2C=C[C@@H]3C[C@@]2(O1)[C@H]1CCCCN31
Result: 1.0

Problem: # strict comparison: is reported normalized growth < 1? input = OC(Cn1cncn1)(Cn1cncn1)c1ccc(F)cc1F
Result: 1.0

----------
Experimental details: chemical genetic growth profiling, strain panel (AID 1159580)
Test context: S. cerevisiae deletion strains, growth OD, locus YJR016C, strain ILV3, hits give low values
About 2,000 (36%) of roughly 5,500 compounds were called active. Inconclusive results (about 18%) are left out. This is one part of the list.
normalized growth for assorted compounds
# output: bare number, no unit

Known normalized growth results, listed for orientation:
Problem: Supply measured normalized growth of CC(C)(C)c1ccc(C(=O)Nc2ccc(C(F)(F)F)cc2)s1 in your reply.
Result: 0.996

Problem: Supply measured normalized growth of Cc1ccc(NNC(=O)c2c(C)noc2C)cc1Cl in your reply.
Result: 0.981

Further cases:
Problem: Supply measured normalized growth of CC(C)(CCC(C)(C)N1C(=O)c2cccc3cccc(c23)C1=O)N1C(=O)c2cccc3cccc(c23)C1=O in your reply.
Result: 0.976

Problem: Supply measured normalized growth of CC(=O)Nc1ccc(S(=O)(=O)Nc2ccccc2Oc2ccc(Cl)cc2Cl)cc1 in your reply.
Result: 0.996

Problem: Supply measured normalized growth of CCCCN(C)C(=O)c1cc([N+](=O)[O-])cc2c1-c1ccc([N+](=O)[O-])cc1C2=C(C#N)C#N in your reply.
Result: 0.973

----------
Experimental details: chemical genetic growth profiling, strain panel (AID 1159580);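 further: tested at 20 µM; growth read once vehicle control cultures reached saturation at 30 °C; 1 = growth at the plate median or of vehicle wells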
Test context: S. cerevisiae deletion strains, growth OD, locus YLR370C, strain arc18
Among all 5,500 compounds or so, about 2,000 (36%) were called active. Another 18% or so got no clear call; they are omitted. Cut-off read from the data, not from the text of the source: active = normalized growth mostly below about 0.91 (no sharp cut-off); inconclusive = no clear call, values can overlap the other calls; inactive = mostly above about 0.92. Some of the results follow.
A correct response names exactly one class from active, inactive

Past entries and their recorded results:
Problem: Hello, I am checking results. What call was entered for O=C1OC(c2ccc(O)cc2)(c2ccc(O)cc2)c2ccccc21 ?
Result: inactive

Problem: Hello, I am checking results. What call was entered for C=CCCCCCCCCCCCC(O)CC(O)COC(C)=O (stereo unspecified) (tested in a mixture with another compound) ?
Result: inactive

Problem: Hello, I am checking results. What call was entered for NC(N)=NS(=O)(=O)c1ccc(N)cc1 ?
Result: inactive

Problem: Hello, I am checking results. What call was entered for CC(=O)OCC(OC(C)=O)C(OC(C)=O)C(OC(C)=O)C(OC(C)=O)C(COC(C)=O)OC(C)=O (stereo unspecified) ?
Result: inactive

Problem: Hello, I am checking results. What call was entered for COc1ccc(CCN2CCC(Nc3nc4ccccc4n3Cc3ccc(F)cc3)CC2)cc1 ?
Result: active

With those in mind, consider the next molecule.
Problem: Hello, I am checking results. What call was entered for C#CCCCCCCCCCCCC(O)CC(O)CO (stereo unspecified) ?
Result: inactive

----------
Experimental details: chemical genetic growth profiling, strain panel (AID 1159580);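 further: tested at 20 µM; growth read once vehicle control cultures reached saturation at 30 °C; 1 = growth at the plate median or of vehicle wells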
Test context: S. cerevisiae deletion strains, growth OD, locus YER133W, strain GLC7
About 2,000 (36%) of roughly 5,500 compounds were called active. Inconclusive results (about 18%) are left out. Cut-off read from the data, not from the text of the source: active = normalized growth mostly below about 0.91 (no sharp cut-off); inconclusive = no clear call, values can overlap the other calls; inactive = mostly above about 0.92. The list shows a part of the results.
A correct response names exactly one class from 1 = active, -1 = inactive

Problem: Hello, I am checking results. What call was entered for CC1(C)OC(=O)C(=Cc2cccn2-c2ccc(C(F)(F)F)cc2)C(=O)O1 ?
Result: -1

Problem: Hello, I am checking results. What call was entered for CCCCCCCCCCCC(=O)NOC(=O)c1c(-c2c(Cl)cccc2Cl)noc1C ?
Result: -1

Problem: Hello, I am checking results. What call was entered for OC(CN1CCN(c2nc3ccc(Cl)cc3s2)CC1)Cn1ccc2ccccc21 (configuration not stated) ?
Result: -1

Problem: Hello, I am checking results. What call was entered for COC(=O)c1sccc1-c1ccc(/C=C/[N+](=O)[O-])o1 ?
Result: 1

Problem: Hello, I am checking results. What call was entered for Cc1ccc(NS(=O)(=O)c2ccc(-c3csc(C)n3)s2)c(C)c1 ?
Result: -1

Further cases:
Problem: Hello, I am checking results. What call was entered for FC(F)(F)c1ccnc(N2CCCN(C(=S)Nc3ccc(Cl)cc3Cl)CC2)n1 ?
Result: -1

Problem: Hello, I am checking results. What call was entered for O=C(/C=C/Sc1nc2ccccc2s1)c1ccc(Cl)cc1 ?
Result: -1

Problem: Hello, I am checking results. What call was entered for O=C(Nc1ccc(Cl)cc1)OCCSc1nc2ccccc2s1 ?
Result: -1

----------
Experimental details: chemical genetic growth profiling, strain panel (AID 1159580);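 further: tested at 20 µM; growth read once vehicle control cultures reached saturation at 30 °C; 1 = growth at the plate median or of vehicle wells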
Test context: S. cerevisiae deletion strains, growth OD, locus YCL061C, strain MRC1 (second series), hits give low values
Screen size: about 5,500 compounds; about 2,000 (36%) were called active. Roughly 18% stayed inconclusive and do not appear here. This is one part of the list.
normalized growth for assorted molecules

Known normalized growth results, listed for orientation:
Problem: Supply measured normalized growth of CCN1C[C@]2(C)CC[C@H](O)[C@@]34C5C[C@@H]6[C@@H](OC)C[C@@](O)(C5[C@H]6O)[C@@H](CC23)C14 (stereo partly drawn) in your reply.
Result: 1 (inactive)

Problem: Supply measured normalized growth of CC[C@H](C)C(=O)O[C@H]1CCC=C2C=C[C@H](C)[C@H](CC[C@@H]3C[C@@H](O)CC(=O)O3)[C@H]21 in your reply.
Result: 0.995 (inactive)

Problem: Supply measured normalized growth of CO/N=C(/C(=O)N[C@@H]1C(=O)N2C(C(=O)O)=C(CSc3nc(=O)c(O)nn3C)CSC12)c1csc(N)n1 (stereo partly drawn) in your reply.
Result: 1 (inactive)

Problem: Supply measured normalized growth of O=C(O)Cc1ccc(O)c(O)c1 in your reply.
Result: 1 (inactive)

Problem: Supply measured normalized growth of O=c1[nH]oc2c1CCNC2 in your reply.
Result: 1 (inactive)

Problem: Supply measured normalized growth of C[Se]C[C@H](N)C(=O)O in your reply.
Result: 0.983 (inactive)

Problem: Supply measured normalized growth of N=C1Sc2ccccc2C2=NCCCN12 in your reply.
Result: 1.01 (inactive)

Further cases:
Problem: Supply measured normalized growth of CC(C)NCC(O)c1cc(O)cc(O)c1 (stereo not drawn) in your reply.
Result: 1.01 (inactive)
